Assay: qHTS Assay for Lipid Storage Modulators in Drosophila S3 Cells
Conditions: BODIPY lipid droplet fluorescence, 18-24 h, cells fed with added oleic acid; series mostly up to 46.1 µM
Text: NIH Molecular Libraries Probe Production Centers Network [MLPCN] NIH Chemical Genomics Center [NCGC] […] Triacsin C (Sigma-Aldrich T-4540), an inhibitor of long-chain fatty acyl CoA synthetase that blocks synthesis of triglycerides, was used as a positive control for lipid under-storage. […] Fluorescence was detected by excitation of the fluorophores with a 488-nm laser on an Acumen Explorer (TTP Lab Tech). […] Cells were detected using channel 3 (575-640 nm) with 5-um width and 100-um depth filters. […]
The campaign covered roughly 320,000 compounds. About 2,100 (0.66%) were called active. Not shown: some 53% with an inconclusive outcome. Calls come from the whole dose curve; as a rule, active = well fitted inhibition curve with a large enough effect in the signal ratio, with a control signal flat (not every such curve was filed as active); inconclusive = small, poorly fitted or top-dose-only effect, or effect the other way, or a change in a side signal; inactive = flat fitted curve, though single readings scatter; the % refers to the signal ratio. The sample holds actives, similar compounds and a random draw of the others, so the mix is not that of the screen.
Select the correct class. Options are True (active), False (inactive) and nothing else.

Q: Would you mind telling me which call this test gave Cc1ccccc1CCNC(=O)C1CCCN(c2cnccn2)C1 (centres undefined) ?
Result: False

Q: Would you mind telling me which call this test gave `CCOc1cc(/C=N/NC(=O)c2ccncc2)ccc1OC(=O)c1ccccc1` ?
Result: True

Q: Would you mind telling me which call this test gave Cc1c(Cl)cccc1NC(=S)N1CCC(N(C)CC2CCCO2)CC1 (centres undefined) ?
Result: False

Q: Would you mind telling me which call this test gave `Cc1ccc(/C=C2\Oc3cc(OC(=O)N4CCOCC4)ccc3C2=O)cc1` ?
Result: False

Q: Would you mind telling me which call this test gave COc1cc(NC(=O)C2CC(c3c(F)cccc3Cl)=NO2)c(OC)cc1Cl (centres undefined) ?
Result: False

Q: Would you mind telling me which call this test gave `CCn1cc(C(=O)N(C)Cc2ccc(OC(F)F)cc2)c(=O)c2ccc(C)nc21` ?
Result: True

Q: Would you mind telling me which call this test gave `CC(C)(C)c1nc(SCC(=O)Nc2ccc3c(c2)OCCO3)c2ccccc2n1` ?
Result: True

Q: Would you mind telling me which call this test gave `CN(C)S(=O)(=O)c1cccc(C(=O)NCCOC(=O)c2cc(F)c(F)cc2Cl)c1` ?
Result: False

Q: Would you mind telling me which call this test gave `Cc1ccc(S(=O)(=O)Nc2nc3ccccc3nc2NCc2ccc3c(c2)OCO3)cc1C` ?
Result: False

Q: Would you mind telling me which call this test gave CCC(=O)N(CCC(c1ccccc1)c1ccco1)Cc1cccs1 (centres undefined) ?
Result: False

Q: Would you mind telling me which call this test gave `C=CCSc1nc(=O)n2ccccc2n1` ?
Result: False

Q: Would you mind telling me which call this test gave `CCOc1cc(/C=N/NC(=O)c2ccccn2)ccc1OC(=O)c1ccc(F)cc1` ?
Result: False

Q: Would you mind telling me which call this test gave `O=c1c([N+](=O)[O-])c(N2CCOCC2)c2ccccc2n1-c1ccccc1` ?
Result: False

Q: Would you mind telling me which call this test gave `O=C(N/N=C/c1cccc([N+](=O)[O-])c1)c1ccc(Br)cc1` ?
Result: False

Q: Would you mind telling me which call this test gave COc1cccc(C2=NOC(C(=O)Nc3ccc(OC)c(OC)c3)C2)c1 (centres undefined) ?
Result: True

Q: Would you mind telling me which call this test gave Cc1cccc(C)c1NC(=S)N1CCC(N(C)CC2CCCO2)CC1 (centres undefined) ?
Result: True

Q: Would you mind telling me which call this test gave `O=C(NCc1nc2ccccc2[nH]1)C1=C[C@H](c2csc3ccccc23)C[C@H](OCc2ccc(CO)cc2)O1` ?
Result: False

Q: Would you mind telling me which call this test gave O=C1C(=O)c2ccccc2C(O)=C1C1CCC(c2ccc(Cl)cc2)CC1 (centres undefined) ?
Result: True

Q: Would you mind telling me which call this test gave `Cc1ccc(NC(=O)C2(N(C(=O)Cn3nnnc3N)c3ccc(C)cc3)CCCCC2)cc1` ?
Result: False

Q: Would you mind telling me which call this test gave `O=C1c2ccccc2C(=O)C1c1ccc(Cl)cc1` ?
Result: False

Q: Would you mind telling me which call this test gave `Cc1c(C(=O)N(CCC#N)c2ccccc2)sc2nc3n(c(=O)c12)CCCC3` ?
Result: False

Q: Would you mind telling me which call this test gave `C=Cc1ccc(COC(=O)c2cn(CC)c3nc(C)ccc3c2=O)cc1` ?
Result: False

Q: Would you mind telling me which call this test gave `COC(=O)c1sc(=S)n(-c2ccccc2)c1N` ?
Result: True

Q: Would you mind telling me which call this test gave `O=C(Nc1cccc([N+](=O)[O-])c1)Nc1cccc([N+](=O)[O-])c1` ?
Result: False

Q: Would you mind telling me which call this test gave `Cc1ccc(NC(=O)c2cc([N+](=O)[O-])ccc2N2CCOCC2)cc1S(=O)(=O)N(C)C` ?
Result: False

Q: Would you mind telling me which call this test gave Cc1ccc(NC(=S)N2CCC(N(C)CC3CCCO3)CC2)cc1C (centres undefined) ?
Result: False

Q: Would you mind telling me which call this test gave Cc1ccccc1NS(=O)(=O)c1cc2c3c(c1)C(C)C(=O)N3CCC2 (centres undefined) ?
Result: False

Q: Would you mind telling me which call this test gave COc1ccc(C2CC(=O)N(CC(=O)NCC3CCCO3)c3ccccc3S2)cc1 (centres undefined) ?
Result: False

Q: Would you mind telling me which call this test gave `CCc1ccc(CNC(=O)C2CCN(S(=O)(=O)N3CCC4(CC3)OCCO4)CC2)cc1` ?
Result: False

Q: Would you mind telling me which call this test gave CC1(OC(=O)C2CCCC2)C(=O)C=C2C=C(c3ccsc3)N(CCCCO)C=C2C1=O (centres undefined) ?
Result: False

Q: Would you mind telling me which call this test gave `CCOc1cc(/C=N/NC(=O)c2cccnc2)ccc1OC(=O)c1ccco1` ?
Result: False

Q: Would you mind telling me which call this test gave `CCN(CC)CCNC(=O)c1ccc(NC(=O)c2ccc(F)cc2F)cc1` ?
Result: False

Q: Would you mind telling me which call this test gave Cc1cc(C)cc(NC(=S)N2CCC(N(C)CC3CCCO3)CC2)c1 (centres undefined) ?
Result: False

Q: Would you mind telling me which call this test gave COc1cccc(C2=NOC(C(=O)Nc3ccc4c(c3)OCO4)C2)c1 (centres undefined) ?
Result: False

Q: Would you mind telling me which call this test gave `C[C@H]1CC[C@@]2(O[C@@H](CCO)C[C@@H](O)[C@@H]2O)O1` ?
Result: False

Q: Would you mind telling me which call this test gave `O=c1oc(-c2cc3ccccc3o2)nc2sc3c(c12)CCCC3` ?
Result: False

Q: Would you mind telling me which call this test gave `CCC(=O)Oc1ccc2oc(=O)cc(C)c2c1` ?
Result: False

Q: Would you mind telling me which call this test gave `COc1cccc(-c2cc(C(=O)Nc3ccc(OC)c(OC)c3)no2)c1` ?
Result: False

Q: Would you mind telling me which call this test gave Cc1cc(C)n(CC(O)CN2C(=O)NC(C)(C)C2=O)n1 (centres undefined) ?
Result: False

Q: Would you mind telling me which call this test gave `CCn1cc(C(=O)OC)c(=O)c2ccc(C)nc21` ?
Result: False

Q: Would you mind telling me which call this test gave `CCOC(=O)c1sc(=S)n(-c2ccccc2)c1N` ?
Result: False

Q: Would you mind telling me which call this test gave `N#Cc1cccc(S(=O)(=O)Nc2c(NC3CCCCC3)c3ccccc3oc2=O)c1` ?
Result: False

Q: Would you mind telling me which call this test gave `COC(=O)Nc1ccc(S(=O)(=O)N2CCN(c3ccc(F)cc3)CC2)cc1` ?
Result: False

Q: Would you mind telling me which call this test gave `CN(Cc1ccccc1)c1nnc(N)s1` ?
Result: False
